Hello, the source for this data is ChEMBL document CHEMBL4513216, in case you need it.

- ASSAY TEXT: Toxicity liver stage against HepG2, at 10uM
- Format: cell-based
- Design: test concentration 10 uM, cell line HepG2-A16-CD81EGFP
- SETTINGS: human, HepG2-A16-CD81EGFP cells; read-out: INHIBITION
A collection of compounds and their measured cytotoxicity at 10 µM
Answer format: numeric, % implied, no suffix.

Here's what some known entries look like.
COMPOUND	cytotoxicity at 10 µM / %
CCC=C(C)C(=O)NCc1ccnc(OC)c1	-2.51
CN(C(=O)c1cccc(Cl)c1)C1CCN(c2ccccn2)CC1	-8.8
CS(=O)(=O)N1CC[C@@H]2OC(COCC(=O)N3CCCC3)CC[C@@H]21 (stereo partly specified)	1.56
Cc1cc2n(n1)CC(CNCc1cnn(-c3ccccc3)c1)CN2 (stereo unspecified)	-9.01
Cc1nccc(-c2ccccc2)c1C(=O)N1CCC2(CN(C)C(=O)O2)C1 (stereo unspecified)	4.77

Memo: Cc1ccc(C2CN(Cc3cnc(-c4ccccn4)s3)CCO2)o1 (stereo unspecified) , reported cytotoxicity at 10 µM: 2.91

* * *

- ASSAY TEXT: Toxicity liver stage against HepG2, at 10uM
- Type: cell-based
- Design: test concentration 10 uM, cell line HepG2-A16-CD81EGFP
- SETTINGS: human, HepG2-A16-CD81EGFP cells; read-out: INHIBITION
MEASURED PARAMETER: cytotoxicity at 10 µM (%)
Answer format: numeric, % implied, no suffix.

COMPOUND	MEASURED PARAMETER	MEASURED RESULT
Cc1cccc(CN2CCC3(CC2)NC(=O)C[C@H]3c2cnn(C)c2)n1	cytotoxicity at 10 µM	4.53
COCC1CCCN(c2cncc(OCc3ccccc3)n2)C1 (configuration not stated)	cytotoxicity at 10 µM	-4.08

Memo: N#Cc1cccc(CNc2cc(CO)ccc2Cl)c1 , reported cytotoxicity at 10 µM: 11.5

Memo: CN(Cc1cn2c(n1)CN(C1CCOC1)CC2)Cc1ccco1 (configuration not stated) , reported cytotoxicity at 10 µM: -2.15

Memo: CC(C)N1CCN(C(=O)c2ccccc2NCc2cccnc2)CC1 , reported cytotoxicity at 10 µM: -19.4

Memo: OCCN1CCN(Cc2coc(-c3cccc(F)c3)n2)CC1 , reported cytotoxicity at 10 µM: -21.6

Memo: c1csc(-c2noc(CN3CCCCC3Cn3cccn3)n2)c1 (configuration not stated) , reported cytotoxicity at 10 µM: -15.4

Memo: O=C1[C@@H]2CC[C@@H](CN(c3ncnc4ccsc34)C2)N1CC1CC1 , reported cytotoxicity at 10 µM: 15.2

Memo: COc1c(C2CCCN2CC(=O)Nc2ccncc2)c(C)nn1C (configuration not stated) , reported cytotoxicity at 10 µM: -12.7

Memo: CC(=O)NCCNC(=O)NCC1Cc2ccccc2O1 (configuration not stated) , reported cytotoxicity at 10 µM: -1.83

Memo: O=C(c1cnccn1)N1CCN2C[C@H](Oc3cccnc3)C[C@H]2C1 , reported cytotoxicity at 10 µM: 4.62

Memo: Cn1cc(-c2cnc(N3CCCC3)nc2)cc1C(=O)O , reported cytotoxicity at 10 µM: -16.3

* * *

A collection of compounds and their measured cytotoxicity at 10 µM
- ASSAY TEXT: Toxicity liver stage against HepG2, at 10uM
- Format: cell-based
- Parameters: test concentration 10 uM, cell line HepG2-A16-CD81EGFP
- SETTINGS: human, HepG2-A16-CD81EGFP cells; read-out: INHIBITION
Answer format: numeric, % implied, no suffix.

Here's what some known entries look like.
COMPOUND	MEASURED RESULT
Cc1ccc(-n2ccnc2-c2cn(C3CCNCC3)nn2)c(Cl)c1	3.07
CCc1ocnc1C(=O)N1CCOC(CCCC(C)C)C1 (stereo unspecified)	4.29
COc1cc(C(=O)N2CC[C@@H](NC(=O)c3ccccn3)[C@H](O)C2)ccn1	0.894
CN(Cc1nc2ccccc2o1)CC1CCCN1c1cccnn1 (stereo unspecified)	-9.45
CC(CCc1ccccc1)CC(=O)NC1CCN(CC(N)=O)CC1 (stereo unspecified)	9.04

Kindly review the next compound as well.
Memo: CN1C(=O)CCCC12CCCN(C(=O)c1cc(F)cc(F)c1)C2 (stereo unspecified) , reported cytotoxicity at 10 µM: -1.54

* * *

- ASSAY TEXT: Toxicity liver stage against HepG2, at 10uM
- Type: cell-based
- Set-up: test concentration 10 uM, cell line HepG2-A16-CD81EGFP
- SETTINGS: human, HepG2-A16-CD81EGFP cells; read-out: INHIBITION
MEASURED PARAMETER: cytotoxicity at 10 µM (%)
Answer format: numeric, % implied, no suffix.

Here's what some known entries look like.
MOLECULE	MEASURED PARAMETER	MEASURED RESULT
CCC(C#N)NC(=O)c1ccc(Oc2cccnc2)cc1 (stereo unspecified)	cytotoxicity at 10 µM	-5.82
CCCc1ccc(CN2CCN(C(=O)NCC)[C@H]3CS(=O)(=O)C[C@H]32)o1	cytotoxicity at 10 µM	2.71
O=C1CCc2cc(S(=O)(=O)NC(=O)c3ccc4c(c3)COC4)ccc2N1	cytotoxicity at 10 µM	4.82
CCNC(=O)NCc1ccc(CN2CCCC(C)C2)cc1 (stereo unspecified)	cytotoxicity at 10 µM	-5.03
Cc1cccc2c1OCCCC2NCc1nccn1Cc1ccccc1 (stereo unspecified)	cytotoxicity at 10 µM	1.38

Memo: Cc1cc2n(n1)CC(CNCc1ccc(Oc3ccccc3)nc1)CN2 (stereo unspecified) , reported cytotoxicity at 10 µM: -10.1

* * *

A collection of molecules and their measured cytotoxicity at 10 µM
- ASSAY TEXT: Toxicity liver stage against HepG2, at 10uM
- Assay type: cell-based
- Parameters: test concentration 10 uM, cell line HepG2-A16-CD81EGFP
- SETTINGS: human, HepG2-A16-CD81EGFP cells; read-out: INHIBITION
Answer format: numeric, % implied, no suffix.

Here's what some known entries look like.
MOLECULE	MEASURED PARAMETER	MEASURED RESULT
CSCC[C@H](N)C(=O)N1CC(Oc2ccccc2C)C1	cytotoxicity at 10 µM	0.897
O=C(Nc1ccccc1Oc1cccc(F)c1)C1CCS(=O)(=O)C1 (configuration not stated)	cytotoxicity at 10 µM	2.64
CCn1cc(CN(C)C(=O)c2cccc(CCC(C)(C)O)c2)cn1	cytotoxicity at 10 µM	-0.0444
CN(CC1COCCO1)c1ncnc2cc(F)ccc12 (configuration not stated)	cytotoxicity at 10 µM	0.613
COc1cc(C2Nc3cc(Cl)ccc3C3=NCCN32)cc(OC)c1OC (configuration not stated)	cytotoxicity at 10 µM	-24.8

Memo: CNC(=O)C1(c2cnccn2)CCCN1C(=O)c1c(F)cccc1F (configuration not stated) , reported cytotoxicity at 10 µM: -24.1

Memo: Cc1ccccc1-c1cncc(C2CCN(Cc3ccccn3)CC2)n1 , reported cytotoxicity at 10 µM: -22.2

Memo: COCc1nccc(C2CCCN(Cc3ccc(C#N)cc3)C2)n1 (configuration not stated) , reported cytotoxicity at 10 µM: 6.45

Memo: CNC(=O)Cc1ccc(NC(=O)NCc2ncc(C)s2)cc1 , reported cytotoxicity at 10 µM: 7.34

Memo: Cc1ccccc1CN1CCCC1c1cncc(Nc2nncs2)n1 (configuration not stated) , reported cytotoxicity at 10 µM: 1.66

Memo: O=C(NC[C@H]1CCCC[C@H]1O)c1cccc2[nH]c(-c3ccco3)nc12 , reported cytotoxicity at 10 µM: -2.51

Memo: O=C(NCc1ccccn1)NCC(c1ccco1)N1CCCC1 (configuration not stated) , reported cytotoxicity at 10 µM: -2.56

* * *

- ASSAY TEXT: Toxicity liver stage against HepG2, at 10uM
- Format: cell-based
- Set-up: test concentration 10 uM, cell line HepG2-A16-CD81EGFP
- SETTINGS: human, HepG2-A16-CD81EGFP cells; read-out: INHIBITION
A collection of compounds and their measured cytotoxicity at 10 µM
Answer format: numeric, % implied, no suffix.

Here's what some known entries look like.
COMPOUND	UNITS	MEASURED RESULT
CS(=O)(=O)CCOCCNc1ccc(C(F)(F)F)cc1C#N	%	2.31
Cc1cncc(C(=O)N2CCO[C@H]3[C@H](Oc4ccccn4)CC[C@@H]32)c1	%	-115
CCn1cnnc1CNC(=O)N1CCN(c2nccs2)CC1	%	-2.72
COc1ncccc1CNC(=O)NCc1ccco1	%	-12.8
CN(CC1(C)COC1)C(=O)c1cc(-c2ccn(C)n2)nc2ccccc12	%	9.81

Memo: COCC(=O)N1CCC(c2cc(-c3ccc(C)cc3)n[nH]2)C1 (stereo unspecified) , reported cytotoxicity at 10 µM: -3.39

Memo: CN(Cc1nc(-c2ccoc2)no1)C1CCCN(c2cccnn2)C1 (stereo unspecified) , reported cytotoxicity at 10 µM: -14.8

Memo: CN(Cc1ccc(N2CCOCC2)cc1)C(=O)Cn1cccnc1=O , reported cytotoxicity at 10 µM: -18.4

Memo: CNS(=O)(=O)c1ccc(CNC(=O)C2CCCO2)cc1 (stereo unspecified) , reported cytotoxicity at 10 µM: 2.45

Memo: NC(=O)Cn1cc(NC(=O)NCCN2CCc3ccccc3C2)cn1 , reported cytotoxicity at 10 µM: -9.52

Memo: Cc1ccc(-n2cc(C(=O)N3CCn4c(C)nnc4C3)nn2)cc1 , reported cytotoxicity at 10 µM: -141
